Quick list: t½ per entry.
TARGET: T1, human IL-33 (R&D Systems, #3625-IL-010/CF) (human, UniProt O95760 112-270)
T1 construct: Commercial recombinant protein; also called hIL-33; interleukin-33
T1 sequence (looked up): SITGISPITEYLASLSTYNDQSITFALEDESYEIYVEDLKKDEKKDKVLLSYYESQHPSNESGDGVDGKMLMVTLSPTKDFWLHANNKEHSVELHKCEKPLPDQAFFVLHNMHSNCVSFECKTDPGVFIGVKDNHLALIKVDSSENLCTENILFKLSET
METHOD NOTES: SPR 37C, pH6.0 chase, mAb captured
# unit: min | format: bare number

BINDER	MEASURED PROPERTY	UNIT OF MEASURE	OBSERVED RESULT
H4H9675P (antibody, human IgG4, V domains shown, Human IgG4 Fc (H4H)) VH: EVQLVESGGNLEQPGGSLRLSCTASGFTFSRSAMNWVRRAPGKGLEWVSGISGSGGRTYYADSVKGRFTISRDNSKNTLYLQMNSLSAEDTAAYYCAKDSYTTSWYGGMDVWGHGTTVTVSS VL: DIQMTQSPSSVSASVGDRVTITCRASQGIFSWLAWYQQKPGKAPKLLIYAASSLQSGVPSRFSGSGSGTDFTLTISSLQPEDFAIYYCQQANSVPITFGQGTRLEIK	t½	min	2

-- ask What measured t½ goes with H4H9662P (antibody, V domains shown, Human IgG4 Fc (H4H)) VH: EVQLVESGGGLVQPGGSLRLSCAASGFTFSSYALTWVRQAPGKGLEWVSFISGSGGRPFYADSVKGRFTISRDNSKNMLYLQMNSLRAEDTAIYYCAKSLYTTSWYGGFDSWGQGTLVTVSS VL: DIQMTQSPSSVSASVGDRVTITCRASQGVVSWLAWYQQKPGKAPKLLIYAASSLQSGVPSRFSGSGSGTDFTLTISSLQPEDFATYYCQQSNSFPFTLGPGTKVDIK ?
-- reply 3
